- Target Under Test: Bromodomain-containing protein 4 (Homo sapiens, UniProt O60885, Y390A)
- Run Description: Displacement of Alexa Fluor 647 labelled ligand from His6-thr-tagged BRD4 BD1 (1 to 477 residues)/BD2 Y390A mutant (unknown origin) after 30 mins by TR-FRET assay
pIC50: −log10 of the molar value.
Readout Label: pIC50

molecule="Cc1cncc(-c2cnc(N[C@@H]3CCNC[C@H]3C(=O)NC3CCCCC3)c3[nH]c(=O)c(C)cc23)c1 (relative stereo)" test_result=5.90
molecule=Cc1ccoc1-c1cnc(N[C@@H]2CCN(C)C[C@H]2C(=O)NC2CCCCC2)c2[nH]c(=O)c(C)cc12 test_result=7.30
molecule="Cc1cc2ccnc(N[C@@H]3CCNC[C@@H]3C(=O)NC3CCCCC3)c2[nH]c1=O (relative stereo)" test_result=5.30
molecule="Cc1cc2ccnc(N[C@@H]3CCNC[C@H]3C(=O)NC3CCOCC3)c2[nH]c1=O (mixture of isomers)" test_result=5.60

###

- Target Under Test: Transcription intermediary factor 1-alpha (Homo sapiens)
- Sequence (O15164 whole entry): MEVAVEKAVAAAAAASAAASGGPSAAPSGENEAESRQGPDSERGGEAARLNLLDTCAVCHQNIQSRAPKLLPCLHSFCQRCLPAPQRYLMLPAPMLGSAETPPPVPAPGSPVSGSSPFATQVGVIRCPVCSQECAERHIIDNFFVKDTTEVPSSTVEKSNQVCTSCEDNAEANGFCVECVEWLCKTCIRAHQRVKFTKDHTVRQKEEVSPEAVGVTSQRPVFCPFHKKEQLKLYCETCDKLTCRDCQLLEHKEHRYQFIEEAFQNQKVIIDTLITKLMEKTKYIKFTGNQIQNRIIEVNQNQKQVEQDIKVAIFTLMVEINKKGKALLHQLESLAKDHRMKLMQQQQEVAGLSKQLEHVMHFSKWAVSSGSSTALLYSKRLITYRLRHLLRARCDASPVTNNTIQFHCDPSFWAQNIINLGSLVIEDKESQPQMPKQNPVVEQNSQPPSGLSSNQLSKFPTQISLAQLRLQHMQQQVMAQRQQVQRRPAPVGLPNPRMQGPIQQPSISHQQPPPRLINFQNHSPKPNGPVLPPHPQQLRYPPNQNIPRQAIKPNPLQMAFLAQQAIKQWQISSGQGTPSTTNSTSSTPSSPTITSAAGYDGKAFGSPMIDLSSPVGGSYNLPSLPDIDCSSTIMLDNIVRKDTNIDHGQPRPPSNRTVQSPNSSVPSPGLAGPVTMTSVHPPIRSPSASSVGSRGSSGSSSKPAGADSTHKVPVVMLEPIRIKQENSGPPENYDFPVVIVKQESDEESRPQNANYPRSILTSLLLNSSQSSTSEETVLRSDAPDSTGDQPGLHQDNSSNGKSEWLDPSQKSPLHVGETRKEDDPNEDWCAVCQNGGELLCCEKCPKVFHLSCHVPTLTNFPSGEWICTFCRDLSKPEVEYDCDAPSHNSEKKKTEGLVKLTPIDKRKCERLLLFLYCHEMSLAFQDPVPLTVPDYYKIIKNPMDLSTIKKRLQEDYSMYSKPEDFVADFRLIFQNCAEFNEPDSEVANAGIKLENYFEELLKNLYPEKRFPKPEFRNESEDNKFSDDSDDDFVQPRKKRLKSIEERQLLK
- Run Description: Binding affinity to human partial length TRIM24 (P790 to P977 residues) expressed in bacterial expression system by BROMOscan assay
pKd: −log10 of the molar value.
Readout Label: pKd

compound="Cc1cc2c(-c3ccco3)cnc(N[C@@H]3CCN(C)C[C@H]3C(=O)NC3CCCCC3)c2[nH]c1=O [GSK789]" target_under_test="Transcription intermediary factor 1-alpha (Homo sapiens)" test_result=4.70

###

- Target Under Test: Bromodomain-containing protein 2 (Homo sapiens)
- Sequence (P25440 whole entry): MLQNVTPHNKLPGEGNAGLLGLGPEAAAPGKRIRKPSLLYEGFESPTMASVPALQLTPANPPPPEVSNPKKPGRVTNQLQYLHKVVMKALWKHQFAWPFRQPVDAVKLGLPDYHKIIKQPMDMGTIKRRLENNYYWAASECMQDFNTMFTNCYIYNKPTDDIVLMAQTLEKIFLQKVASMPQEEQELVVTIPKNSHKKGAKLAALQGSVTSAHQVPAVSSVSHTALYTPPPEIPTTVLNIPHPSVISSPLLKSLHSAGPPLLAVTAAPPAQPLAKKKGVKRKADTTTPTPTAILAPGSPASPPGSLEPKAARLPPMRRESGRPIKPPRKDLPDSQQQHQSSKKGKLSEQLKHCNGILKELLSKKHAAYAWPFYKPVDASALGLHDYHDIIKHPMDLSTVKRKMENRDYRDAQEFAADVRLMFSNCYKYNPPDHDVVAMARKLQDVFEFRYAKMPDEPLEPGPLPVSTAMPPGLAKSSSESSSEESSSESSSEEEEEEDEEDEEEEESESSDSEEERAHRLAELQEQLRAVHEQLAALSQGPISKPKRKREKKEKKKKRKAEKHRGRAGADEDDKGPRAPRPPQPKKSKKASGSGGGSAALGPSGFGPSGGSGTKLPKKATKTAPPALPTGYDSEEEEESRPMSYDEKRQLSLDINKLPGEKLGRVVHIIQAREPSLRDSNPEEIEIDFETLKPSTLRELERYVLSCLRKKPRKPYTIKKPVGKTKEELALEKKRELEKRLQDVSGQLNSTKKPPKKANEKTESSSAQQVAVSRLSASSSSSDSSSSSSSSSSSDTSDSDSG
- Run Description: Binding affinity to full length BRD2 BD1 in human HuT78 cell lysates incubated for 45 mins by liquid chromatography-mass spectrometry based chemoproteomic binding assay
- Format: subcellular
Readout Label: Kd (nM)

molecule="Cc1cc2c(-c3ccco3)cnc(N[C@@H]3CCN(C)C[C@H]3C(=O)NC3CCCCC3)c2[nH]c1=O [GSK789]" readout_label=Kd value_units=nM test_result=3.98

###

Selectivity Index: recorded values
- Tested on: Bromodomain-containing protein 4 (Homo sapiens), O60885 [UNDEFINED MUTATION]
- Run Description: Selectivity index, […] for His6-thr-tagged BRD4 BD1 (1 to 477 residues)/BD2 Y390A mutant (unknown origin) to pIC50 for His6-tagged BRD4 BD2 (1 to 477 residues)/BD1 Y97A mutant (unknown origin)
Readout Label: Selectivity Index

compound="Cc1cc2ccnc(N[C@@H]3CCNC[C@H]3C(=O)NC3CCCCC3)c2[nH]c1=O (racemic)" target_under_test="Bromodomain-containing protein 4 (Homo sapiens), O60885 [UNDEFINED MUTATION]" readout_label="Selectivity Index" value_relation_sign=> test_result=60
compound="Cc1cc2c(-c3ccsc3)cnc(N[C@@H]3CCNC[C@H]3C(=O)NC3CCCCC3)c2[nH]c1=O (mixture of isomers)" target_under_test="Bromodomain-containing protein 4 (Homo sapiens), O60885 [UNDEFINED MUTATION]" readout_label="Selectivity Index" value_relation_sign=> test_result=501
compound="Cc1cc2c(-c3ccco3)ccc(N[C@@H]3CCNC[C@H]3C(=O)NC3CCCCC3)c2[nH]c1=O (racemic)" target_under_test="Bromodomain-containing protein 4 (Homo sapiens), O60885 [UNDEFINED MUTATION]" readout_label="Selectivity Index" value_relation_sign== test_result=50
compound="Cc1cc2ccnc(N[C@@H]3CCNC[C@H]3C(=O)NCC(C)C)c2[nH]c1=O (mixture of isomers)" target_under_test="Bromodomain-containing protein 4 (Homo sapiens), O60885 [UNDEFINED MUTATION]" readout_label="Selectivity Index" value_relation_sign=> test_result=25
compound="Cc1cc2ccnc(N[C@@H]3CCNC[C@@H]3C(=O)NC3CCCCC3)c2[nH]c1=O (relative stereo)" target_under_test="Bromodomain-containing protein 4 (Homo sapiens), O60885 [UNDEFINED MUTATION]" readout_label="Selectivity Index" value_relation_sign=> test_result=10
compound="Cc1cc2c(-c3cccs3)cnc(N[C@@H]3CCNC[C@H]3C(=O)NC3CCCCC3)c2[nH]c1=O (racemic)" target_under_test="Bromodomain-containing protein 4 (Homo sapiens), O60885 [UNDEFINED MUTATION]" readout_label="Selectivity Index" value_relation_sign== test_result=630
compound="Cc1cc2c(C3=CCOCC3)cnc(N[C@@H]3CCNC[C@H]3C(=O)NC3CCCCC3)c2[nH]c1=O (mixture of isomers)" target_under_test="Bromodomain-containing protein 4 (Homo sapiens), O60885 [UNDEFINED MUTATION]" readout_label="Selectivity Index" value_relation_sign== test_result=30

###

- Target Under Test: Bromodomain-containing protein 3 (Homo sapiens, UniProt Q15059)
- Sequence (Q15059 whole entry, the tested form may be a part): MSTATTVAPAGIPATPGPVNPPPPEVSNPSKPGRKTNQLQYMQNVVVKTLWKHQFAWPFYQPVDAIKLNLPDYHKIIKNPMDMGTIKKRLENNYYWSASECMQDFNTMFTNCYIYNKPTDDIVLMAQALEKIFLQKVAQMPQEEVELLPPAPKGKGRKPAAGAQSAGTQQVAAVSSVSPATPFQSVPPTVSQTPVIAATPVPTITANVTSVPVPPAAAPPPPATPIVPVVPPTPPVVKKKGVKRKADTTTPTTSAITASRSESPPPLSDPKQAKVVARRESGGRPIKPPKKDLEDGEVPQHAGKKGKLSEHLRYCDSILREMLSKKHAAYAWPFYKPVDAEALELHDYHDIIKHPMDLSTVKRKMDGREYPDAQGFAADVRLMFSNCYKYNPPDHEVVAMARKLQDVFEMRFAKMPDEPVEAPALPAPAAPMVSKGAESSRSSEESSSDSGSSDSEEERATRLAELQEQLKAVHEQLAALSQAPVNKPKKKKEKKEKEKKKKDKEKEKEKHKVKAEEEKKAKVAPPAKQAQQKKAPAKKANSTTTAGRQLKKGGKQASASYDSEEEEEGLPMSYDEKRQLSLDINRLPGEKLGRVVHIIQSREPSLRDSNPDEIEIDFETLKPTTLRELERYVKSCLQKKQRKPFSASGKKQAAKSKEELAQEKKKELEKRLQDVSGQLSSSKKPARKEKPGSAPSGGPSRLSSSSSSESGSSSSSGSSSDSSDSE
- Run Description: Binding affinity to human partial length BRD3 bromodomain 1 (P24 to E144 residues) expressed in bacterial expression system by BROMOscan assay
Readout Label: Kd

compound="Cc1cc2c(-c3ccco3)cnc(N[C@@H]3CCN(C)C[C@H]3C(=O)NC3CCCCC3)c2[nH]c1=O [GSK789]" readout_label=Kd test_result="0.0158 µM"

###

- Test system: Blood
- Run Description: Inhibition of LPS-induced MCP1 production in human whole blood preincubated for 30 mins followed by LPS addition and measured after overnight incubation by mesoscale assay
- Format: functional, tissue-based
Readout Label: IC50

smiles_text=Cc1cc2c(-c3ccco3)cnc(N[C@@H]3CCN(C)C[C@H]3C(=O)NC3CCCCC3)c2[nH]c1=O test_result="670 nM"
smiles_text=COc1cc2c(cc1-c1c(C)noc1C)ncc1[nH]c(=O)n([C@H](C)c3ccccn3)c12 test_result="300 nM"

###

- Target Under Test: Transcription initiation factor TFIID subunit 1 (Homo sapiens)
- Sequence (P21675 whole entry, the tested form may be a part): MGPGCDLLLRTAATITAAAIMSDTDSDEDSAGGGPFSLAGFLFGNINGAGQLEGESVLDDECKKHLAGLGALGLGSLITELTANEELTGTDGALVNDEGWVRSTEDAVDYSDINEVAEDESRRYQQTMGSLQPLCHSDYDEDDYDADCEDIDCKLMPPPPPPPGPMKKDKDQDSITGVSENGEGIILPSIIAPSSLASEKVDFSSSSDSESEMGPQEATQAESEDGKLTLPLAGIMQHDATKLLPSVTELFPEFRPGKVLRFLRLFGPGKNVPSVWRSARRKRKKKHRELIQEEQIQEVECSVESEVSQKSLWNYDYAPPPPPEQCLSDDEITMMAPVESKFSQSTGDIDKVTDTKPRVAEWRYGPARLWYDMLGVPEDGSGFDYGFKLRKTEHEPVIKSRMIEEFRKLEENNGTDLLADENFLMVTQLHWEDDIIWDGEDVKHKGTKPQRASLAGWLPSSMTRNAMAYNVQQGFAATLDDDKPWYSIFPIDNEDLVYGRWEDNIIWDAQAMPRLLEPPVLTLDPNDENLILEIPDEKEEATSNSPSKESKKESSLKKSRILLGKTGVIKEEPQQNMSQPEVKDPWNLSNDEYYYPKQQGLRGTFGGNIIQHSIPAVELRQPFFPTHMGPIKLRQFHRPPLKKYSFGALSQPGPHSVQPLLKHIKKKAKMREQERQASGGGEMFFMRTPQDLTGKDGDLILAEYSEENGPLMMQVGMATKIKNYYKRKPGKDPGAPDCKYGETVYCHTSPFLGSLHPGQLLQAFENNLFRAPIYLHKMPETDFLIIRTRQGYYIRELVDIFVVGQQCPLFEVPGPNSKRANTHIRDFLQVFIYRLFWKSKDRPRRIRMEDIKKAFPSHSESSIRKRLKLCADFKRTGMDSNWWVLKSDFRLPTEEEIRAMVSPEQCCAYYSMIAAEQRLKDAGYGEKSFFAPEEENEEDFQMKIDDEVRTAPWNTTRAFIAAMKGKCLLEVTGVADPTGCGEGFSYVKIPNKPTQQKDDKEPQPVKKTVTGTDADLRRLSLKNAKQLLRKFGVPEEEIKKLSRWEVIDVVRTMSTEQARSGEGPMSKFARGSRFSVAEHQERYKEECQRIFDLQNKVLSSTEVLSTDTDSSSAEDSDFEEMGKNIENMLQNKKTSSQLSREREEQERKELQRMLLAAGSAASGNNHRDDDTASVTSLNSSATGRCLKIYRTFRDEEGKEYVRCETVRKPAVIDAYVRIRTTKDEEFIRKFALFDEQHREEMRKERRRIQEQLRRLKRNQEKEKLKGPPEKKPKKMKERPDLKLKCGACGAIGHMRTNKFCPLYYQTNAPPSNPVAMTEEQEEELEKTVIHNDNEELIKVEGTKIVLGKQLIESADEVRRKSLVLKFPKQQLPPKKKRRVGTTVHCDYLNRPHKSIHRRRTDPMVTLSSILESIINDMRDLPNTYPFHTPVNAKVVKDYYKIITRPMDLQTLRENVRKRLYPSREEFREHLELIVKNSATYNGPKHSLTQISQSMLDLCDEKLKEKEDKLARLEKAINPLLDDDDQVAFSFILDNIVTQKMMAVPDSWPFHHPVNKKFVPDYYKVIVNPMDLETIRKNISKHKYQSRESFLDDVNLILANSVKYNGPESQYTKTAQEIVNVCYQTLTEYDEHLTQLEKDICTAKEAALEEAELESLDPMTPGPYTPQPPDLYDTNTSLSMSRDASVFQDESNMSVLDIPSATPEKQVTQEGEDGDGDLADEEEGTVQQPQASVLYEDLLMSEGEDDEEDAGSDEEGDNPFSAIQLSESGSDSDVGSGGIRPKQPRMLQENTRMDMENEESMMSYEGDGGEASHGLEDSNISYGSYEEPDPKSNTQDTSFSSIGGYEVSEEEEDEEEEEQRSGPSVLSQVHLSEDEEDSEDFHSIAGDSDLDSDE
- Run Description: Binding affinity to human partial length TAF1 bromodomain 2 (D1521 to D1656 residues) expressed in bacterial expression system by BROMOscan assay
pKd: −log10 of the molar value.
Readout Label: pKd

compound="Cc1cc2c(-c3ccco3)cnc(N[C@@H]3CCN(C)C[C@H]3C(=O)NC3CCCCC3)c2[nH]c1=O [GSK789]" test_result=7.30

###

- Target Under Test: Bromodomain-containing protein 4 (Homo sapiens, UniProt O60885, Y97A)
- Run Description: Displacement of Alexa Fluor 647 labelled ligand from His6-tagged BRD4 BD2 (1 to 477 residues)/BD1 Y97A mutant (unknown origin) after 30 mins by TR-FRET assay
IC50: recorded values
Readout Label: IC50 (µM)

compound="Cc1cc2c(-c3ccccc3)cnc(N[C@@H]3CCNC[C@H]3C(=O)NC3CCCCC3)c2[nH]c1=O (mixture of isomers)" readout_label=IC50 value_relation_sign== test_result=25.1
compound=Cc1cc2c(-c3cccs3)cnc(N[C@@H]3CCN(C)C[C@H]3C(=O)NC3CCCCC3)c2[nH]c1=O readout_label=IC50 value_relation_sign== test_result=3.98
compound="Cc1cc2c(-c3ccoc3)cnc(N[C@@H]3CCNC[C@H]3C(=O)NC3CCCCC3)c2[nH]c1=O (mixture of isomers)" readout_label=IC50 value_relation_sign== test_result=12.6
compound="CO[C@@H](C)CNC(=O)[C@@H]1CNCC[C@H]1Nc1nccc2cc(C)c(=O)[nH]c12 (mixture of isomers)" readout_label=IC50 value_relation_sign== test_result=31.6
compound="Cc1cc2ccnc(N[C@@H]3CCNC[C@H]3C(=O)N[C@H](C)C(C)C)c2[nH]c1=O (relative stereo)" readout_label=IC50 value_relation_sign=> test_result=50.1
compound="Cc1cc2ccnc(N[C@@H]3CCNC[C@H]3C(=O)N[C@@H]3CCCOC3)c2[nH]c1=O (mixture of isomers)" readout_label=IC50 value_relation_sign=> test_result=50.1
compound="Cc1cc2c(-c3ccsc3)cnc(N[C@@H]3CCNC[C@H]3C(=O)NC3CCCCC3)c2[nH]c1=O (mixture of isomers)" readout_label=IC50 value_relation_sign=> test_result=50.1
compound=Cc1ccoc1-c1cnc(N[C@@H]2CCN(C)C[C@H]2C(=O)NC2CCCCC2)c2[nH]c(=O)c(C)cc12 readout_label=IC50 value_relation_sign== test_result=15.8
compound="Cc1cc2ccnc(N[C@@H]3CCNC[C@H]3C(=O)NCC(C)C)c2[nH]c1=O (mixture of isomers)" readout_label=IC50 value_relation_sign=> test_result=50.1
compound="Cc1cc2ccnc(N[C@@H]3CCNC[C@H]3C(=O)NCC3CCCC3)c2[nH]c1=O (mixture of isomers)" readout_label=IC50 value_relation_sign=> test_result=50.1
compound="Cc1cc2ccnc(N[C@@H]3CCNC[C@H]3C(=O)NC3CCOCC3)c2[nH]c1=O (mixture of isomers)" readout_label=IC50 value_relation_sign== test_result=12.6
compound="Cc1cc2c(-c3cccs3)cnc(N[C@@H]3CCNC[C@H]3C(=O)NC3CCCCC3)c2[nH]c1=O (racemic)" readout_label=IC50 value_relation_sign== test_result=31.6
compound="Cc1cc2ccnc(N[C@@H]3CCNC[C@H]3C(=O)NC3CCCC3)c2[nH]c1=O (relative stereo)" readout_label=IC50 value_relation_sign== test_result=39.8
compound="Cc1cc2c(-c3ccco3)cnc(N[C@@H]3CCNC[C@H]3C(=O)NC3CCCCC3)c2[nH]c1=O (racemic)" readout_label=IC50 value_relation_sign== test_result=25.1
compound=Cc1csc(-c2cnc(N[C@@H]3CCN(C)C[C@H]3C(=O)NC3CCCCC3)c3[nH]c(=O)c(C)cc23)c1 readout_label=IC50 value_relation_sign== test_result=15.8
compound="Cc1ccsc1-c1cnc(N[C@@H]2CCN(C)C[C@H]2C(=O)NC2CCCCC2)c2[nH]c(=O)c(C)cc12 (relative stereo)" readout_label=IC50 value_relation_sign== test_result=31.6
compound=Cc1coc(-c2cnc(N[C@@H]3CCN(C)C[C@H]3C(=O)NC3CCCCC3)c3[nH]c(=O)c(C)cc23)c1 readout_label=IC50 value_relation_sign== test_result=20
compound="Cc1cc2c(-c3ccco3)ccc(N[C@@H]3CCNC[C@H]3C(=O)NC3CCCCC3)c2[nH]c1=O (racemic)" readout_label=IC50 value_relation_sign== test_result=15.8
compound="Cc1cc2cccc(N[C@@H]3CCNC[C@H]3C(=O)NC3CCCCC3)c2[nH]c1=O (racemic)" readout_label=IC50 value_relation_sign== test_result=31.6
